meta.source: ChEMBL document CHEMBL1129219

target: UniProtKB P35367; assay: Antagonistic activity against histamine H1 receptor
I'd appreciate it if you could supply pIC50 values for the items below.
Numbers only, as −log10 of the molar value.

Give pIC50 for all compounds that follow.
1. COc1ccc(C2(CCN3CCC(C(=O)c4nc5ccccc5n4Cc4ccc(C(=O)O)cc4)CC3)CCN(C(=O)c3cc(OC)c(OC)c(OC)c3)C2)cc1OC (configuration not stated)
2. COc1cc(C(=O)N2CCC(CCN3CCC(C(=O)c4nc5ccccc5n4Cc4ccccn4)CC3)(c3ccc(F)cc3)C2)cc(OC)c1OC (configuration not stated)

1. 4.56
2. 6.25

----------
molecular target: Histamine H1 receptor (Homo sapiens); assay: Antagonistic activity against histamine H1 receptor
Can you tell me pIC50 for the items I'm about to list?
Answers are plain numbers, as −log10 of the molar value.

Example results:
{"compound": "COc1ccc(CCN2CCC(=Nc3nc4ccccc4n3Cc3ccc(F)cc3)CC2)cc1", "tested on": "Histamine H1 receptor (Homo sapiens)", "pIC50": 7.33}
{"compound": "CC(C)Oc1cccc(CC(=O)N2CCC(CCN3CCC(C(=O)c4nc5ccccc5n4Cc4ccc(F)cc4)CC3)(c3ccc4c(c3)OCO4)C2)c1 (stereo not given)", "tested on": "Histamine H1 receptor (Homo sapiens)", "pIC50": 6.60}
{"compound": "COc1cc(C(=O)N2CCC(CCN3CCC(C(=O)c4nc5ccccc5n4Cc4ccccn4)CC3)(c3ccc(Cl)c(Cl)c3)C2)cc(OC)c1OC (stereo not given)", "tested on": "Histamine H1 receptor (Homo sapiens)", "pIC50": 6.36}

Hey, quick one: what's pIC50 for each of these?
1. COc1cc(C(=O)N2CCC(CCN3CCC(C(=O)c4nc5ccccc5n4Cc4ccc(F)cc4)CC3)(c3ccc(C(F)(F)F)cc3)C2)cc(OC)c1OC (stereo not given)
2. COc1cc(C(=O)N2CCCC(CCN3CCC(C(=O)c4nc5ccccc5n4Cc4ccc(F)cc4)CC3)(c3ccc(Cl)c(Cl)c3)C2)cc(OC)c1OC (stereo not given)
3. COc1cc(C(=O)N2CCC(CCN3CCC(C(=O)c4nc5ccccc5[nH]4)CC3)(c3ccccc3)C2)cc(OC)c1OC (stereo not given)

6.33
6.67
6.30

----------
target: Histamine H1 receptor (Homo sapiens, UniProt P35367); experiment: Antagonistic activity against histamine H1 receptor; format: functional
Sequence (P35367 whole entry): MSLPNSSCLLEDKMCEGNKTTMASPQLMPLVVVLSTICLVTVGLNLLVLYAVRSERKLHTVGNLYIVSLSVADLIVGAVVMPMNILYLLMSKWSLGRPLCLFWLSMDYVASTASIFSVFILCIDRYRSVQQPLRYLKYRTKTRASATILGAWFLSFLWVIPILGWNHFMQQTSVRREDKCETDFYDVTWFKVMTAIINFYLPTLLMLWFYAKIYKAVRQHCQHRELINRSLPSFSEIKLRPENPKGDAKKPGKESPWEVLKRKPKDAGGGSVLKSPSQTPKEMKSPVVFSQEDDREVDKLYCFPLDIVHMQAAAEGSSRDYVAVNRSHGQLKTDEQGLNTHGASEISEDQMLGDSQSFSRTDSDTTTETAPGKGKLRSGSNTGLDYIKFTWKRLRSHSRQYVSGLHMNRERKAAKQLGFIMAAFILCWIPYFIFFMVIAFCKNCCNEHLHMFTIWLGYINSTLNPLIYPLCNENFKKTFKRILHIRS
recorded endpoint: pIC50
Numbers only, as −log10 of the molar value.

{"molecule": "COc1cc(C(=O)N2CCC(CCN3CCC(C(=O)c4nc5ccccc5n4Cc4ccc(F)cc4)CC3)(c3ccccc3)C2)cc(OC)c1OC (centres undefined)", "pIC50": 6.63}
{"molecule": "COc1cc(C(=O)N2CCC(CCN3CCC(C(=O)c4nc5ccccc5n4Cc4ccncc4)CC3)(c3ccccc3)C2)cc(OC)c1OC (centres undefined)", "pIC50": 6.55}
{"molecule": "COc1ccc(CCN2CCC(C(=O)c3nc4ccccc4n3Cc3ccc(F)cc3)CC2)cc1", "pIC50": 7.23}
{"molecule": "CCOC(=O)CCCn1c(C(=O)C2CCN(CCC3(c4ccc(Cl)c(Cl)c4)CCN(C(=O)c4cc(OC)c(OC)c(OC)c4)C3)CC2)nc2ccccc21 (centres undefined)", "pIC50": 6.02}
{"molecule": "COC(=O)c1ccc(Cn2c(C(=O)C3CCN(CCC4(c5ccccc5)CCN(C(=O)c5cc(OC)c(OC)c(OC)c5)C4)CC3)nc3ccccc32)cc1 (centres undefined)", "pIC50": 5.93}

Provide each entry's pIC50 from the list below.
1. COC(=O)c1ccc(Cn2c(C(=O)C3CCN(CCC4(c5ccc(OC)c(OC)c5)CCN(C(=O)c5cc(OC)c(OC)c(OC)c5)C4)CC3)nc3ccccc32)cc1 (centres undefined)
2. COc1cc(C(=O)N2CCC(CCN3CCC(C(=O)c4nc5ccccc5n4CCCC(=O)O)CC3)(c3ccc(Cl)c(Cl)c3)C2)cc(OC)c1OC (centres undefined)
3. COc1cc(C(=O)N2CCC(CCN3CCC(C(=O)c4nc5ccccc5n4Cc4ccc(C(=O)O)cc4)CC3)(c3ccccc3)C2)cc(OC)c1OC (centres undefined)
4. COc1ccc(C2(CCN3CCC(C(=O)c4nc5ccccc5n4Cc4ccc(F)cc4)CC3)CCN(C(=O)c3cc(OC)c(OC)c(OC)c3)C2)cc1OC (centres undefined)
5. COc1cc(C(=O)N2CCC(CCN3CCC(C(=O)c4nc5ccccc5n4Cc4ccco4)CC3)(c3ccccc3)C2)cc(OC)c1OC (centres undefined)

6.02
5.00
4.47
6.48
6.53

Hey, quick one: what's pIC50 for each of these?
1. CCOCCn1c(C(=O)C2CCN(CCC3(c4ccc(OC)c(OC)c4)CCN(C(=O)c4cc(OC)c(OC)c(OC)c4)C3)CC2)nc2ccccc21 (centres undefined)
2. COc1cc(C(=O)N2CCC(CCN3CCC(C(=O)c4nc5ccccc5n4CCN4CCOCC4)CC3)(c3ccc(Cl)c(Cl)c3)C2)cc(OC)c1OC (centres undefined)
3. O=C(c1nc2ccccc2n1Cc1ccc(F)cc1)C1CCN(CCC2(c3ccc4c(c3)OCO4)CCN(C(=O)c3ccc(Cl)cc3Cl)C2)CC1 (centres undefined)
4. COc1ccc(C2(CCN3CCC(C(=O)c4nc5ccccc5n4Cc4ccc(F)cc4)CC3)CCN(C(=O)c3ccccc3)C2)cc1OC (centres undefined)

1. 6.20
2. 6.26
3. 6.89
4. 6.62
